Reference source: patent US9732087B2

- system name: UniProt:Q9H3N8
- test protocol: Binding assay on recombinant human histamine H4 receptor ([3H]histamine competition, SK-N-MC cell membranes)
- recorded conditions: membranes harvested with cell harvester; [3H]histamine 10 nM; average of results; read-out: Cell Harvester Ki
Counter-ions that a name gives are not always drawn.
observation type: Ki (nM)

CC(C)Nc1cc(N2CC[C@@H](N)C2)ccn1 | 26.2
c1nnc(NC2CC2)cc1N1C[C@H]2CCN[C@H]2C1 | 1600
c1cc(N2C[C@H]3CCN[C@H]3C2)cc(NCC2CCCCC2)n1 | 617
CN1CCN(c2ccnc(NC3C4C[C@H]5C[C@@H](C4)C[C@@H]3C5)c2)CC1 (some centres unmarked) | 191
CC(C)Nc1nccc(N2CC[C@@H](N)C2)n1 | 33.4
c1cc(N2CCNCC2)nc(NCC2CCCC2)n1 | 71.5
CN[C@H]1CCN(c2cnnc(NCC(C)C)c2)C1 | 296
CCCNc1cc(N2CCNCC2)ccn1 [Example 17, dihydrochloride] | 375

1 = CN[C@H]1CCN(c2ccnc(NCC3CCCC3)c2)C1
2 = CC1C(Nc2cc(N3CCNCC3)ccn2)C[C@H]2C[C@@H]1C2(C)C (some centres unmarked)
3 = c1cc(N2CCNCC2)cc(NCC2CCCO2)n1 (centres unmarked)
Order each entry by recorded Ki, climbing from the minimum. Returns: the labels arranged in the requested order.
1, 3, 2
(1: 260 nM, 3: 554 nM, 2: 2100 nM)

1 = CN[C@@H]1CCN(c2cnnc(NCCc3ccccc3)c2)C1
2 = CC(C)CNc1nccc(N2CC[C@H](N)C2)n1
Please indicate which has the smaller reported Ki: 1 , or 2 . I would appreciate it if you answered with the label of your choice.
2
(2: 55 nM, 1: 139 nM)

* * *

- system name: human H4 receptor (Homo sapiens (Human))
- test protocol: Binding assay on recombinant human histamine H4 receptor ([3H]histamine competition, SK-N-MC cell membranes)
- recorded conditions: membranes harvested with cell harvester; [3H]histamine 10 nM; average of results; read-out: Cell Harvester Ki
pKi: −log10 of the molar value. Where a name gives a salt, the structure may show the parent alone.
observation type: pKi

Worked cases, answers included:
CNC1CN(c2ccnc(NCCOC)c2)C1 [Example 286] | 7.05
CN1CCN(c2cnnc(NC3CCCC3)c2)CC1 [Example 407] | 6.08
CN[C@H]1CCN(c2ccnc(NCCOC)c2)C1 [Example 238] | 6.26
CN[C@H]1CCN(c2ccnc(NC3C[C@H]4C[C@@H](C3C)C4(C)C)c2)C1 (some centres unmarked) [Example 230] | 6.56

a = CN[C@@H]1CCN(c2ccnc(NCC(C)(C)C)c2)C1 [Example 41]
b = CN1CCN(c2ccnc(NCCCO)c2)CC1 [Example 216]
c = N[C@H]1CCN(c2ccnc(NCc3ccc(F)cc3)n2)C1 [Example 199]
d = CNC1CN(c2cnnc(NCCCC(F)(F)F)c2)C1 [Example 299]
Order each entry by recorded pKi, climbing from the minimum. Returns: the labels arranged in the requested order.
c, b, d, a

A = CN[C@@H]1CCN(c2cnnc(NCc3ccoc3)c2)C1 [Example 387]
B = CN[C@@H]1CCN(c2ccnc(NCc3ccc(F)cc3)c2)C1 [Example 7, dihydrochloride]
When A and B are compared, which has the higher number for pKi? I would appreciate it if you answered with the label of your choice.
B

a = CN[C@H]1CCN(c2ccnc(NC34CC5CC(CC(C5)C3)C4)c2)C1 [Example 210]
b = N[C@@H]1CCN(c2ccnc(NC3CC4CCC3C4)c2)C1 (some centres unmarked) [Example 270]
When a and b are compared, which has the higher number for pKi? I would appreciate it if you answered with the label of your choice.
b
(b: 8.45, a: 6.53)
